Known switch fluorescence ratio of a selection of sequences
- Test system: ATP;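 further: ATP exposure 15 min at 22 °C before imaging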
- protocol: switch fluorescence ratio, 500 uM ATP over buffer (Cy3 cluster intensity, sum of 5 cycles each) (fold (ratio)); higher = stronger signal-on switching upon ATP binding; sequences stand for … in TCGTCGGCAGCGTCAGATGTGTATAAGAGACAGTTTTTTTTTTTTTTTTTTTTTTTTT…TC
- run.conditions: aptamer strand: ATP DNA aptamer (quencher-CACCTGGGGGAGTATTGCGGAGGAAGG + anchor), 100 nM annealed; ATP concentration: 500 uM

entry.sequence | switch fluorescence ratio
ATAGGTATGC | 1
GAGGGCTAGG | 0.997
GTAACTAATG | 1.02
CGGTGTTGTG | 0.986
TTTGAGAAAG | 0.992
TTTTTGGCCA | 1.01
AGAAGTGATA | 0.976
GGTGGGTCGT | 1.01
CTCTTGTGTT | 1.02
GTTCGTGTGG | 0.987
GACAGTCAAA | 1.01
GGTTAAGATG | 0.986
TGCACAATCG | 1.01
TGGGGGGTTG | 1.02
GGGGGGAATG | 1
GAAACATGCT | 1.01
GAGGAGGGAC | 0.989
ATTTCGTTGT | 1
GCTAATGTTA | 1.01
AGAAAAGCAG | 1.02
CGCGTCGGGA | 0.976
TTATCACTCG | 1.01
ACGGGTCCGG | 1.02

* * *

- System: ATP;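 further: ATP exposure 15 min at 22 °C before imaging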
- protocol: switch fluorescence ratio, 500 uM ATP over buffer (Cy3 cluster intensity, sum of 5 cycles each) (fold (ratio)); higher = stronger signal-on switching upon ATP binding; sequences stand for … in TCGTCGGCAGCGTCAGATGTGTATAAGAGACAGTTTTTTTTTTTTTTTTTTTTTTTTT…TC
- run.conditions: aptamer strand: ATP DNA aptamer (quencher-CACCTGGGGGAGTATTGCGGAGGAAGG + anchor), 100 nM annealed; ATP concentration: 500 uM
Known switch fluorescence ratio of a selection of sequences
readout.kind: switch fluorescence ratio

entry.sequence | assay.target | reported.result
GAGGGGGGAC | ATP | 1.02
GTATGCGTTG | ATP | 0.989
AGGCGATGCG | ATP | 0.994
GCGTATGCCC | ATP | 1.02
GAGGAGTGGT | ATP | 0.984

* * *

- Tested on: ATP;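 further: ATP exposure 15 min at 22 °C before imaging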
- protocol: switch fluorescence ratio, 500 uM ATP over buffer (Cy3 cluster intensity, sum of 5 cycles each) (fold (ratio)); higher = stronger signal-on switching upon ATP binding; sequences stand for … in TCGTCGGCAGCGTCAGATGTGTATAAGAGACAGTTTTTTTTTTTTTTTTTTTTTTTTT…TC
- run.conditions: aptamer strand: ATP DNA aptamer (quencher-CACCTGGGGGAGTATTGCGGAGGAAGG + anchor), 100 nM annealed; ATP concentration: 500 uM

entry.sequence | switch fluorescence ratio
CTTGACTTTT | 1.02
AATAGTTTG | 1.01
TTTATCGTTT | 1
TAAGGCATTG | 0.996
GGGGGGGCTA | 0.987
GAGGTCAAGG | 0.987

* * *

- Tested on: ATP;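 further: ATP exposure 15 min at 22 °C before imaging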
- protocol: switch fluorescence ratio, 500 uM ATP over buffer (Cy3 cluster intensity, sum of 5 cycles each) (fold (ratio)); higher = stronger signal-on switching upon ATP binding; sequences stand for … in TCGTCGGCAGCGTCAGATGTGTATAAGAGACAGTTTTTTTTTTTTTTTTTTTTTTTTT…TC
- run.conditions: aptamer strand: ATP DNA aptamer (quencher-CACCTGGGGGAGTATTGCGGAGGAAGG + anchor), 100 nM annealed; ATP concentration: 500 uM
Known switch fluorescence ratio of a selection of sequences

entry.sequence | switch fluorescence ratio
CGAGCACGGG | 1.47
CGCTAAAGCC | 1.16
TACAGTAGAT | 1.06
ATTCGGGAAG | 1
GGGGCGGGCC | 0.971
TTGAGGGGGC | 1.01
TATATGTGGG | 0.971
TACTCGTTGA | 1.04
TGGGTATAT | 1.01
CGAGTCTGCC | 1.04
TATGTAGAAG | 1
TTATTCTGTT | 0.976
TCTGTATCTA | 0.993
GTAGTAAGCG | 0.953
GGGTCTGTTG | 0.975
GGGATCTGGT | 1
GGCAATTAGG | 1.04
CTACGTTGGA | 1.03
CGTACGGCTC | 1.06
AGGAAAGTCT | 1.02
GTCTGGCAGT | 1.01

The values you see were collected from the supplement of paper PMC10126150.
